Tested on: 439559-082-T-J2-PDC complex spheroid growth;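 further: spheroids exposed to agents for 7 days starting day 3 after seeding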
test-summary: Anticancer human tumor 439559-082-T-J2-PDC patient-derived colon adenocarcinoma cell line growth inhibition [Asc]
test-conditions: curve of first compound; second compound 0.1 µM
pIC50: −log10 of the molar value.
value-type: pIC50

Prompt: API: value(readout=pIC50, system=439559-082-T-J2-PDC complex spheroid growth) for record O=C(c1cc(Cc2n[nH]c(=O)c3ccccc23)ccc1F)N1CCN(C(=O)C2CC2)CC1 + CNC(C)C(=O)NC1CN(S(=O)(=O)c2cccc(S(=O)(=O)N3CCC4CCC(C(=O)NC(c5ccccc5)c5ccccc5)N4C(=O)C(NC(=O)C(C)NC)C3)c2)CCC2CCC(C(=O)NC(c3ccccc3)c3ccccc3)N2C1=O;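 further: spheroids exposed to agents for 7 days starting day 3 after seeding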
Response: < 5.00

Prompt: API: value(readout=pIC50, system=439559-082-T-J2-PDC complex spheroid growth) for record NC(=O)C(=Cn1cnc(-c2cc(C(F)(F)F)cc(C(F)(F)F)c2)n1)c1cncnc1 + Cc1c(S(C)(=O)=O)c(-c2cc(F)cc(N3CCN(c4ccc(NS(=O)(=O)c5ccc(NC(CCN6CCC(C(=O)OCCCP(=O)(O)O)CC6)CSc6ccccc6)c(S(=O)(=O)C(F)(F)F)c5)cc4)CC3)c2)c(-c2ccc(Cl)cc2)n1C(C)C;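 further: spheroids exposed to agents for 7 days starting day 3 after seeding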
Response: < 6.52

Prompt: API: value(readout=pIC50, system=439559-082-T-J2-PDC complex spheroid growth) for record Cc1nc(N2CCC3(CC2)COC(C)C3N)c(CO)nc1Sc1ccnc(N)c1Cl (stereo not drawn) + Cc1c(S(C)(=O)=O)c(-c2cc(F)cc(N3CCN(c4ccc(NS(=O)(=O)c5ccc(NC(CCN6CCC(C(=O)OCCCP(=O)(O)O)CC6)CSc6ccccc6)c(S(=O)(=O)C(F)(F)F)c5)cc4)CC3)c2)c(-c2ccc(Cl)cc2)n1C(C)C;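 further: spheroids exposed to agents for 7 days starting day 3 after seeding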
Response: < 5.52
